# study system: hemagglutinin (HA) of influenza A/Solomon Islands/3/06 H1N1 (Influenza A virus A/Solomon …)
# assay procedure: ELISA, inactivated whole virions coated; transfection supernatant set 3
result type: OD450 (OD450)
Write it as a number; the unit OD450 goes unstated.

The examples below pair each entry with its known result.
| binder | OD450, OD450 |
| --- | --- |
| TCN-530 (5248_H10a) (antibody, V domains shown) VH: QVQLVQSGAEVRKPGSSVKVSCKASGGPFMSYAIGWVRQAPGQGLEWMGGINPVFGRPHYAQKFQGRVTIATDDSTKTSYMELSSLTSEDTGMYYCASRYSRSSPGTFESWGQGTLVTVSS VL: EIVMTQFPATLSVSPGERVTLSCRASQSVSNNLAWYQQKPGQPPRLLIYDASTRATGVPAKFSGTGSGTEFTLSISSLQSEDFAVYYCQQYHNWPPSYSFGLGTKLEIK | 3.62 |
| TCN-532 (5262_H18) (antibody, V domains shown) VH: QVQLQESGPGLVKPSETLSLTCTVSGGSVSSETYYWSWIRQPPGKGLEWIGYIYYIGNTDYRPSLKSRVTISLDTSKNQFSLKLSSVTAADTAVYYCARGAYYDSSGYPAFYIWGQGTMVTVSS VL: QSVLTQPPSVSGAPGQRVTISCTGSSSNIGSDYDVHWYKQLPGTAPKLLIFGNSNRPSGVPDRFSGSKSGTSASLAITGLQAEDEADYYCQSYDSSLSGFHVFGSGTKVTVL | 0.13 |

Here is another binder to look at.
query: Would you kindly share the measured OD450 for TCN-504 (3251_K17) (antibody, V domains shown) VH: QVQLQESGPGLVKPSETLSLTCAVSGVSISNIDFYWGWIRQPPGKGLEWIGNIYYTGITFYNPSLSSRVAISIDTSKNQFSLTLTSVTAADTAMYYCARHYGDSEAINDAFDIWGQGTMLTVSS VL: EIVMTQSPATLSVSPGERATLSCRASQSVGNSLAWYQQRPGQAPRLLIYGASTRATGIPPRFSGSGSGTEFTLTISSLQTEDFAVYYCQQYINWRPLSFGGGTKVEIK ?
result: 3.63
